Reported Inhibition of IP stimulation by 10nM Agonist: IC50 values are given for each entry in this list.
target: human gpr-54 receptor (human, UniProt Q969F8 1-398); assay: cell-based or functional assay
Sequence (Q969F8 whole entry): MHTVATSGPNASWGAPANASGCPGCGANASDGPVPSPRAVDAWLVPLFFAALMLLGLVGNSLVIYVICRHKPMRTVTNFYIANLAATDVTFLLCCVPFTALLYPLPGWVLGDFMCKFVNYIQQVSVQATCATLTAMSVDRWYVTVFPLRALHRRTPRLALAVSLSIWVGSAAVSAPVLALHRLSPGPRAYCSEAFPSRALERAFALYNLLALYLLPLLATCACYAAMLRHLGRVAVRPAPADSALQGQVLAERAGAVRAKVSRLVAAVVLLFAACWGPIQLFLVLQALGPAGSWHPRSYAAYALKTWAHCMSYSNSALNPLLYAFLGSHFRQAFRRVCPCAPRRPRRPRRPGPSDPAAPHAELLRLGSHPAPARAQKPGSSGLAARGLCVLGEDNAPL
Non-standard residues stand in square brackets, D forms with d. No end group written: not given here.
outcome_measure: Inhibition of IP stimulation by 10nM Agonist: IC50

[[record]]
binder = "YNWNGFG[dW]RF-NH2 (kisspeptin-10 analogue; also called compound 210) [210]"
readout_value = "< 0.1 nM"

[[record]]
binder = "Ac-[dA]NWN[dP]FG[dW]RF-NH2 (SMILES CC(=O)N[C@H](C)C(=O)N[C@@H](CC(N)=O)C(=O)N[C@@H](Cc1c[nH]c2ccccc12)C(=O)N[C@@H](CC(N)=O)C(=O)N1CCC[C@@H]1C(=O)N[C@@H](Cc1ccccc1)C(=O)NCC(=O)N[C@H](Cc1c[nH]c2ccccc12)C(=O)N[C@@H](CCCNC(=N)N)C(=O)N[C@@H](Cc1ccccc1)C(N)=O) [275]"
readout_value = "> 100 nM"

[[record]]
binder = "YNWNG[dW]GLRF-NH2 (N-terminus assumed; SMILES CC(C)C[C@H](NC(=O)CNC(=O)[C@@H](Cc1c[nH]c2ccccc12)NC(=O)CNC(=O)[C@H](CC(N)=O)NC(=O)[C@H](Cc1c[nH]c2ccccc12)NC(=O)[C@H](CC(N)=O)NC(=O)[C@@H](N)Cc1ccc(O)cc1)C(=O)N[C@@H](CCCNC(=N)N)C(=O)N[C@@H](Cc1ccccc1)C(N)=O, kisspeptin-10 analogue; also called YNWNG[(D)-W]GLRF) [212]"
readout_value = "< 0.1 nM"

